tested on: SN12C renal; assay: NCI-60 one-dose screen, 48 h; details: 10 µM unless noted
The panel holds about 83,000 compounds, 20% with a hit somewhere; the sample as a whole holds those more often. Activity calls are given as the source filed them. How the source made its calls: active means growth percent below 10; inactive means the rest.
# valid calls are active, inactive; nothing else

A selection of reference data follows.
[[record]]
molecule = "COc1ccc(-c2nc(Nc3ccc(-c4nc5ccccc5[nH]4)cc3)nc(N3CCOCC3)n2)cc1"
assigned_class = "inactive"

[[record]]
molecule = "CC[C@]12C=CCN3CC[C@@]4(c5cc([C@H]6CCC(=O)N6)c(OC)cc5N(C)[C@H]4[C@@](O)(C(=O)OC)[C@@H]1OC(C)=O)[C@@H]32"
assigned_class = "inactive"

[[record]]
molecule = "CC(CNc1nc(Nc2ccc(Cl)c(Cl)c2)nc(C(Cl)(Cl)Cl)n1)N(C)C (stereo not given)"
assigned_class = "inactive"

[[record]]
molecule = "C=C(C)[C@@H]1CC[C@]2(C(=O)O)CC[C@]3(C)[C@H](CC[C@@H]4[C@@]5(C)C/C(=C/c6cccc(I)c6)C(=O)C(C)(C)[C@@H]5CC[C@]43C)[C@@H]12"
assigned_class = "inactive"

[[record]]
molecule = "C#CCn1c(C)cc(C)c(C#N)c1=O"
assigned_class = "inactive"

[[record]]
molecule = "CC(=O)OC(C)COc1ccc(-c2ccccc2)cc1 (stereo not given)"
assigned_class = "inactive"

[[record]]
molecule = "NC1=C(C/C(N)=N\\O)C(c2ccccc2Cl)c2c(ccc3ccccc23)O1 (stereo not given)"
assigned_class = "inactive"

[[record]]
molecule = "COc1cc(-c2cc3ncccc3c3[nH]c(=O)c4cccnc4c23)cc(OC)c1OC"
assigned_class = "inactive"


Input: Hello, I am checking results. What call was entered for O=C1C(=O)c2ccccc2C(O)=C1CCCc1ccc(C2CCCCC2)cc1 ?
Output: inactive

Input: Follow-up item: C=C(C)[C@@H]1CC[C@]2(C)[C@H](CC=C3[C@@H]4CC(C)(C)CC[C@]4(C(=O)OC)CC[C@]32C)[C@@]1(C)CC/C(N)=N/O
Output: inactive

Input: Follow-up item: COc1cc(-c2cc(-c3nc4ccc(F)cc4[nH]3)[nH]n2)cc(OC)c1OC
Output: inactive

Input: Follow-up item: CCCC1CCCCN1C(=O)OCC(C)C (stereo not given)
Output: inactive

Input: Follow-up item: COc1ccc(-c2n[nH]nc2-c2cc3ccccc3s2)cc1O
Output: inactive

Input: Follow-up item: N#Cc1cnc2cc(OC[C@@H](O)CO)c(NC(=O)CC3CSSC3)cc2c1Nc1ccc(OCc2cccc(F)c2)c(Cl)c1
Output: active

Input: Follow-up item: Clc1ccc2[nH]cc(-c3nc(-c4c[nH]c5ncccc45)cs3)c2c1
Output: inactive

Input: Follow-up item: N=c1ccc2nc3c(cc(N)c4ccccc43)oc-2c1
Output: active

Input: Follow-up item: CCCCCC1CCCCN1C(=O)OCC (stereo not given)
Output: inactive

====

Give growth for every item shown.
test system: SW-620 colon; assay: NCI-60 one-dose screen, 48 h (100 = growth as untreated, 0 = no growth, -100 = all killed); settings: 10 µM unless noted
About 83,000 compounds went through this panel and 20% of them were active in at least one assay; those are over-represented in the sample as a whole.
Numbers only, in %.

Examples with answers:
[[record]]
structure = "COc1cc(-c2nc(-c3ccccc3)c(-c3ccccc3)[nH]2)cc(OC)c1O"
unit_spec = "%"
numeric_result = -37.2

[[record]]
structure = "O=C(NC1=CC(=O)c2ccccc2C1=O)c1ccccc1"
unit_spec = "%"
numeric_result = -56.2


Here's the next entry for you.
Input: Requested read-out: growth. Entry: N#Cc1cnc2cc(OC[C@@H](O)CO)c(NC(=O)CC3CSSC3)cc2c1Nc1ccc(OCc2cccc(F)c2)c(Cl)c1
Output: -74.8
